# survival annotations
test system: DeltatarO mutant; test: S. aureus survival, RN4220 and DeltatarO strains – OD600, teichoic acid synthesis inhibitors, primary screen (AID 463173); details: S. aureus RN4220 wild type/DeltatarO growth, OD600, 18 h, active compounds read low, screened at 18.75 µg/mL (by protocol)
In all, about 52,000 compounds went through this assay and about 4,300 (8.3%) were called active. Many of the other results were omitted from the sample, so actives are more common in it than they were.
OBSERVED_PROPERTY: survival (%)

>>> df
                                    molecule  observed_property  endpoint_value
 0  CCOC(=O)c1c(C)sc(-c2c(-c3ccc4c(c3)OCCO4)[nH]c3c2c(=O)n(C)c(=O)n3C)c1O           survival             128
 1      COc1ccc(S(=O)(=O)NCCc2sc(C)nc2C)cc1F           survival              88
 2  O=C(NCc1ccc(Cl)cc1)C1CCN(C(=O)c2cnn(-c3ccccc3)c2-n2cccc2)CC1           survival              65
 3  O=C1CCCc2c1cc(C(=O)N1CCOCC1)c(=O)n2-c1ccccc1           survival              69
 4      Cc1cccc2nc(-c3ccccn3)c(Nc3ccccc3)n12           survival              24
 5   CCC(C)(C)NC(=O)Cn1c(-c2ccc(C)cc2)noc1=O           survival              86
 6   Cc1ccc2nc(-c3ccccn3)c(Nc3ccc(F)cc3)n2c1           survival              10
 7  CCOc1ccc(S(=O)(=O)Nc2cccc(-c3ccc(N4CCC(C)CC4)nn3)c2)cc1           survival              86
 8  Cc1ccccc1Cn1c(CCCNC(=O)C2CCCCC2)nc2ccccc21           survival              90
 9  COc1ccc(NC(=O)c2oc3ccccc3c2NC(=O)Cc2coc3cc(C)ccc23)cc1           survival              70
10      COc1ccc(Cc2nc3ccccc3n2Cc2ccccc2C)cc1           survival              -3
11  CCCOc1cccc(C(=O)Nc2cccc(NC(=O)c3ccc(Cl)cc3Cl)c2)c1           survival              88
12              CCOC(=O)CCC(=O)Nc1nnc2n1CCS2           survival              66
13   Cc1cccc2nc(-c3ccccn3)c(Nc3ccc(F)cc3)n12           survival              -9
14          O=C(COc1ccc(Br)cc1Cl)Nc1ncn[nH]1           survival              91
15  CC(C)c1ccc(C2N3CC4(C)CN2CC(c2ccccc2)(C3)C4=O)cc1 (configuration not stated)           survival              80
16  Cc1ccc(Nc2c(-c3ccccn3)nc3ccc(Br)cn23)cc1           survival              72
17          c1ccc(-c2nc3ccccn3c2NC2CCCC2)nc1           survival               1
18  CCc1ccccc1NC(=O)Cn1cc(C(=O)c2ccncc2)c(=O)c2cc(C)ccc21           survival              83
19  CS(=O)(=O)c1ccc(-c2nnc(NC(=O)c3ccc4c(c3)OCCO4)o2)cc1           survival              60
20  O=C(NCCc1nc2ccccc2n1Cc1ccccc1F)c1ccc(F)cc1           survival              81
21  CS(=O)(=O)c1ccccc1-c1nnc(NC(=O)c2ccc3c(c2)OCCO3)o1           survival              -4

---

system: DeltatarO mutant; test: S. aureus survival, RN4220 and DeltatarO strains – OD600, teichoic acid synthesis inhibitors, primary screen (AID 463173); details: S. aureus RN4220 wild type/DeltatarO growth, OD600, 18 h, screened at 18.75 µg/mL (by protocol)
About 4,300 (8.3%) of roughly 52,000 compounds were called active. No stated cut-off is given here; in the data, active means survival mostly below about 52% (no sharp cut-off); inactive means mostly above about 56%. This excerpt belongs to a sample that is enriched for actives.
Outcome codes: Yes (active), No (inactive)

                                   compound  assigned_class
0  CCN(CC)CCNC(=O)CSc1nc2nc(C)c(Cc3ccccc3)c(C)n2n1              No
1  Cc1cccc(Cc2c(C)nc3nc(SCc4ccccc4F)nn3c2C)c1              No
2  Cc1nc2nc(SCC(=O)NCc3ccccc3)nn2c(C)c1Cc1ccccc1Cl              No
3  Cc1cccc(Cc2c(C)nc3nc(SCC(=O)NCc4ccccc4)nn3c2C)c1             Yes
4  CCOc1ccc(NC(=O)c2nn(C)c3c2CS(=O)(=O)c2ccccc2-3)cc1              No
5  CCC(=O)N1CCc2cc(CNS(=O)(=O)c3ccc(NC(=O)CC(C)C)cc3)ccc21              No
6  CCCNC(=O)N1CCc2cc(OC)c(OC)cc2C1c1cc2cc3c(cc2[nH]c1=O)OCO3 (stereo not given)              No
7  CN(CC(=O)Nc1cccc(C(F)(F)F)c1)S(=O)(=O)c1ccc2[nH]c3c(c2c1)CCCC3              No
8  CN1CCN(Cc2nnnn2CC2CCCO2)CC1 (stereo not given)              No
9  Cc1cc(C)nc(SCC(=O)Nc2ccc(N3CCOCC3)cc2)n1              No

---

survival: recorded values
test system: DeltatarO mutant; experiment: S. aureus survival, RN4220 and DeltatarO strains – OD600, teichoic acid synthesis inhibitors, primary screen (AID 463173); details: S. aureus RN4220 wild type/DeltatarO growth, OD600, 18 h, active compounds read low, screened at 18.75 µg/mL (by protocol)
Out of some 52,000 compounds screened, about 4,300 (8.3%) were called active. The full list was thinned out, with actives kept by preference.
OBSERVED_PROPERTY: survival (%)

In [3]: df
Out[3]:
                                    compound      assay_target  unit_abbreviation  endpoint_value
 0  COc1ccc(NC(=O)c2nnn(Cc3nc(-c4cc(OC)c(OC)c(OC)c4)oc3C)c2C)cc1  DeltatarO mutant                  %              61
 1  Cc1cc(Br)ccc1NC(=O)c1ccc(NS(=O)(=O)c2c(C)noc2C)cc1  DeltatarO mutant                  %              59
 2  Cc1ccc(Cc2nc3ccccc3nc2SCC(=O)N2CCN(c3ccccc3F)CC2)cc1  DeltatarO mutant                  %              49
 3  CC1=C(c2ccc(C)c(C)c2)S(=O)(=O)N=C1N1CCC(C(=O)NC(C)c2ccccc2)CC1 (stereo unspecified)  DeltatarO mutant                  %              84
 4  Cc1cccc(NS(=O)(=O)c2ccc3c(c2)CCCN3C(=O)C2CCC2)c1C  DeltatarO mutant                  %             107
 5  Cc1noc(C)c1S(=O)(=O)Nc1ccc(C(=O)Nc2ccc(Br)cc2)cc1  DeltatarO mutant                  %              36
 6  Cn1cc(S(=O)(=O)c2ccc(Cl)cc2)c(=O)c2cc(F)c(N3CCCC3)cc21  DeltatarO mutant                  %              73
 7  Cc1ccc(-c2nn(-c3ccc(F)cc3)c3c2cnc2cc(F)c(F)cc23)cc1  DeltatarO mutant                  %              82
 8  Cc1ccc(CCNC(=O)CCCn2nc(C)c3c(C)n(-c4ccccc4)nc3c2=O)cc1  DeltatarO mutant                  %              87
 9  Cc1nn(C)c2c1c(C(F)(F)F)cc(=O)n2CC(=O)NCc1ccccc1Cl  DeltatarO mutant                  %              80
10  O=C(NCCc1ccc(Cl)cc1)C(=O)NCC(c1cccs1)S(=O)(=O)c1ccccc1 (stereo unspecified)  DeltatarO mutant                  %              77
11  COc1ccc(NC(=O)c2c(NCc3ccc(C)o3)sc3c2CCC(C)C3)c(OC)c1 (stereo unspecified)  DeltatarO mutant                  %              82
12                   Nc1nnc(CC(=O)N2CCCC2)s1  DeltatarO mutant                  %              99
13  CCc1ccc(NC(=O)c2ccc(NS(=O)(=O)c3c(C)noc3C)cc2)cc1  DeltatarO mutant                  %              48
14  COc1ccc(Cl)cc1NC(=O)c1c(NCc2ccc(C)o2)sc2c1CCC(C)C2 (stereo unspecified)  DeltatarO mutant                  %              81
15  COc1ccc(C)cc1NC(=O)c1ccc(NS(=O)(=O)c2c(C)noc2C)cc1  DeltatarO mutant                  %              83
16  Cc1noc(NS(=O)(=O)c2ccc(NC(=O)c3ccc(Br)cc3)cc2)c1C  DeltatarO mutant                  %              74
17   Fc1ccccc1N1CCN(c2c3c(nc4nncn24)CCC3)CC1  DeltatarO mutant                  %              81
18  COc1cc(-c2cc3n(C)c(C)c(CCC(=O)NC4CCC(C)CC4)c(=O)n3n2)cc(OC)c1OC (stereo unspecified)  DeltatarO mutant                  %             101
19    O=C(NC1CCN(CC(=O)N2CCOCC2)CC1)C1CCCCC1  DeltatarO mutant                  %              95
20  Cc1ccc(Cl)cc1N1CCN(S(=O)(=O)c2ccc3[nH]c4c(c3c2)CCCC4)CC1  DeltatarO mutant                  %              72
